experiment: in vitro; assay type: cell-based; details: human
Positions of bridges follow the written chain, without caps; N, C: chain ends. Non-standard residues stand in square brackets, D forms with d. Residues, ends and D or L forms follow the SMILES beside them. S5 = C=CCCC[C@](C)(N)C(=O)O
observed.property: IC50 at 90 min (µg/mL)

molecule	observed.property	measured.number
CC(C)[C@@H]1NC(=O)[C@@](C)(NC(=O)[C@H](CCCCN)NC(=O)[C@H](CCCCN)NC(=O)[C@H](CCCCN)NC(=O)[C@H](CCCCN)NC(=O)[C@H](CCCCN)NC(=O)[C@]2(C)CCCC=CCCC[C@](C)(NC(=O)CN)C(=O)NCC(=O)N[C@@H](CCCCN)C(=O)N[C@@H](Cc3ccccc3)C(=O)N2)CCCC=CCCC[C@@](C)(C(=O)N[C@@H](C)C(=O)N[C@@H](CCCCN)C(=O)N[C@@H](CCCCN)C(N)=O)NC(=O)[C@H](CCC(=O)O)NC(=O)CNC1=O [compound 70] (H-G[S5]GKF[S5]KKKKK[S5]VGE[S5]AKK-NH2; staple 2-6, 12-16)	IC50 at 90 min	125
